The reported numbers originate from paper PMC8642396.

# System name: hMETTL6 (Homo sapiens, UniProt Q8TCB7, H61N)
# Sequence (Q8TCB7 1-284 H61N): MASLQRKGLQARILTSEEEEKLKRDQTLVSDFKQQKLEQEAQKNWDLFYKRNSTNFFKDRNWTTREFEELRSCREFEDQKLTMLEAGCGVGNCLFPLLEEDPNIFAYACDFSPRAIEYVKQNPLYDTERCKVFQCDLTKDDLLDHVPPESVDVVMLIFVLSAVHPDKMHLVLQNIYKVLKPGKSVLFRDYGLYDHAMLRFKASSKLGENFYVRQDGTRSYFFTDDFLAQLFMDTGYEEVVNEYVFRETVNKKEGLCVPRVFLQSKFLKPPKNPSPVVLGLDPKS
# Experiment notes: isothermal titration calorimetry
Metric name: Kd (µM)
Write down the numeric answer in µM and omit the unit.

Data request, read-out Kd, for C[S+](CC[C@H](N)C(=O)O)C[C@H]1O[C@@H](n2cnc3c(N)ncnc32)[C@H](O)[C@@H]1O (stereo partly shown) [SAM]
3.11

---

# System name: hMETTL6 (Homo sapiens, UniProt Q8TCB7, Y49F)
# Sequence (Q8TCB7 1-284 Y49F): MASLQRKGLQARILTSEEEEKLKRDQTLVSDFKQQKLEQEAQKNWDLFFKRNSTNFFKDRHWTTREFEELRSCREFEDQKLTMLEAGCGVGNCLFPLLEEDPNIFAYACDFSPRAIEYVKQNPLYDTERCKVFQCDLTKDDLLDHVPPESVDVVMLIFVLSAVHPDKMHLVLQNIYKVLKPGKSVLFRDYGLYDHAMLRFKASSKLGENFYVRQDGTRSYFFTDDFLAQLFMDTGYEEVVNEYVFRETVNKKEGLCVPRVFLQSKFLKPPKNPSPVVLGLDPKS
# Experiment notes: isothermal titration calorimetry
Metric name: Kd
Provide a numeric answer, followed by its unit.

Query the reported Kd for hMETTL6 (Homo sapiens, UniProt Q8TCB7, Y49F); item: C[S+](CC[C@H](N)C(=O)O)C[C@H]1O[C@@H](n2cnc3c(N)ncnc32)[C@H](O)[C@@H]1O (stereo partly shown)
9.5 µM

---

# System name: hMETTL6 (Homo sapiens, UniProt Q8TCB7, E85Q)
# Sequence (Q8TCB7 1-284 E85Q): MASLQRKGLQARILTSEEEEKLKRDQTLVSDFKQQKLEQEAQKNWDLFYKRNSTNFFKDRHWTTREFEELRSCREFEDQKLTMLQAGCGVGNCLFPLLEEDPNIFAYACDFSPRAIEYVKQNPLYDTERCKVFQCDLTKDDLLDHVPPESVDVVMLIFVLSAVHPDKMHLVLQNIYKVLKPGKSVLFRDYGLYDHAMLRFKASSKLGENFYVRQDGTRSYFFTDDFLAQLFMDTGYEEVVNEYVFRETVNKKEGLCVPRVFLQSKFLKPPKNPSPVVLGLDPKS
# Experiment notes: isothermal titration calorimetry
Metric name: pKd
Please keep in mind that pKd is minus log10 of the molar concentration; only the number is needed.

Data request, read-out pKd, for C[S+](CC[C@H](N)C(=O)O)C[C@H]1O[C@@H](n2cnc3c(N)ncnc32)[C@H](O)[C@@H]1O (stereo partly shown)
4.06

---

Sequence of the target: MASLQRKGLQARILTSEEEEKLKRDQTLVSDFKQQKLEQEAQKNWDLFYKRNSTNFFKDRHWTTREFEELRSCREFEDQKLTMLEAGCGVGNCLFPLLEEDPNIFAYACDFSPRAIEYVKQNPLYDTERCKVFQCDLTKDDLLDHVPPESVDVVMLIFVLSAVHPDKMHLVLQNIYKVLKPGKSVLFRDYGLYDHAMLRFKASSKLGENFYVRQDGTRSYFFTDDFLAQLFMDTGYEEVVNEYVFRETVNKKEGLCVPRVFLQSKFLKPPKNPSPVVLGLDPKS
pKd: −log10 of the molar value.
Metric name: pKd

Data request, read-out pKd, for C[S+](CC[C@H](N)C(=O)O)C[C@H]1O[C@@H](n2cnc3c(N)ncnc32)[C@H](O)[C@@H]1O (stereo partly shown)
~5.57
